Provenance of the data: PubChem BioAssay (EPA / NIEHS)

# assay comment: APR_HepG2_p53Act_1hr: Apredica 1-hour HepG2 Assay for p53 Activation (AID 2282671)
# condition notes: high-content imaging, actives raise or lower the signal
The source made the active and inactive calls. How the source made its calls: active means hit-call score of the fitted dose curve at least 0.9, where 1 is the maximum; inactive means score below 0.9.
measurement label: outcome

Below are worked cases with known answers.
Prompt: I would be grateful if you could share the reported outcome for CCOP(=S)(Oc1cnc(C(C)(C)C)nc1)OC(C)C (centres undefined) .
Completion: inactive

Prompt: Here is the next compound: `CCCOCC(=Nc1ccc(Cl)cc1C(F)(F)F)n1ccnc1`
Completion: inactive

Prompt: Here is the next compound: `CCC(CC)Nc1c([N+](=O)[O-])cc(C)c(C)c1[N+](=O)[O-]`
Completion: inactive

Prompt: Here is the next compound: `CSc1nc(NC(C)C)nc(NC(C)C)n1`
Completion: inactive

Prompt: Here is the next compound: `Cc1nn(-c2cc(NS(C)(=O)=O)c(Cl)cc2Cl)c(=O)n1C(F)F`
Completion: inactive

Prompt: Here is the next compound: `CCOP(=S)(OCC)SCCSCC`
Completion: inactive

New cases:
Prompt: I would be grateful if you could share the reported outcome for `CCCCN(CC)c1c([N+](=O)[O-])cc(C(F)(F)F)cc1[N+](=O)[O-]` .
Completion: inactive

Prompt: Here is the next compound: FC(F)C(F)(F)OCC(Cn1cncn1)c1ccc(Cl)cc1Cl (centres undefined)
Completion: inactive

Prompt: Here is the next compound: `CNC(=O)ON=C(C)SC`
Completion: inactive

Prompt: Here is the next compound: `CCCCOC(=O)[C@@H](C)Oc1ccc(Oc2ccc(C#N)cc2F)cc1`
Completion: inactive

Prompt: Here is the next compound: CCc1cccc(C)c1N(C(=O)CCl)C(C)COC (centres undefined)
Completion: inactive

Prompt: Here is the next compound: `CCNc1nc(Cl)nc(NC(C)(C)C#N)n1`
Completion: inactive

Prompt: Here is the next compound: CC(COc1ccc(Oc2ccccc2)cc1)Oc1ccccn1 (centres undefined)
Completion: inactive

Prompt: Here is the next compound: `COc1ccc(C(=CC(=O)N2CCOCC2)c2ccc(Cl)cc2)cc1OC`
Completion: inactive

Prompt: Here is the next compound: `S=C1NCCN1`
Completion: inactive

Prompt: Here is the next compound: `CC(C)N(C(=O)SCC(Cl)=C(Cl)Cl)C(C)C`
Completion: inactive

Prompt: Here is the next compound: `Cc1cc(C2CC2)nc(Nc2ccccc2)n1`
Completion: inactive

Prompt: Here is the next compound: CCC(=NOC/C=C/Cl)C1=C(O)CC(C2CCOCC2)CC1=O (centres undefined)
Completion: inactive

Prompt: Here is the next compound: CC(Oc1cccc(Cl)c1)C(=O)O (centres undefined)
Completion: inactive

* * *

# assay comment: CCTE_Shafer_MEA_dev_LDH: CCTE's Lactate Dehydrogenase Assay for Cytotoxicity in the Neural Network Formation Assay, Shafer Lab (AID 2284068);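 further: exposure for twelve days from plating with re-dosing on DIV 5 and 9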
Results filed as inconclusive are left out. Active and inactive are the calls of the source. The calls were made as follows: active = hit-call score of the fitted dose curve at least 0.9, where 1 is the maximum; inconclusive = response in the unintended direction; inactive = score below 0.9.
The reply should be one of these categories: label 1 = active, label 0 = inactive

Prompt: Could you check what this test reported for CCCSP(=O)(OCC)Oc1ccc(Br)cc1Cl (stereo not given) ?
Completion: label 1

Prompt: Here is the next compound: `CC(C)N(C(=O)SCC(Cl)=C(Cl)Cl)C(C)C`
Completion: label 1

New cases:
Prompt: Could you check what this test reported for `C[Si](Cn1cncn1)(c1ccc(F)cc1)c1ccc(F)cc1` ?
Completion: label 1

Prompt: Here is the next compound: `CCOP(=S)(OCC)Oc1ccc2c(C)c(Cl)c(=O)oc2c1`
Completion: label 1

Prompt: Here is the next compound: `CCOP(=S)(OCC)SCCSCC`
Completion: label 0

Prompt: Here is the next compound: `CN1COCN(Cc2cnc(Cl)s2)C1=N[N+](=O)[O-]`
Completion: label 0

Prompt: Here is the next compound: CC(Oc1cccc(Cl)c1)C(=O)O (stereo not given)
Completion: label 0

Prompt: Here is the next compound: COP(=O)(NC(C)=O)SC (stereo not given)
Completion: label 0

Prompt: Here is the next compound: CCOP(=O)(SC(C)CC)N1CCSC1=O (stereo not given)
Completion: label 1

Prompt: Here is the next compound: CCOC(=O)CC(SP(=O)(OC)OC)C(=O)OCC (stereo not given)
Completion: label 0

* * *

# Read-out: Interleukin-8 (IL8), CXCL8 (gene 3576)
# assay comment: BSK_SAg_IL8: BioMAP Diversity Plus: SAg Assay for Interleukin-8 (IL8) Biomarker Activity (AID 2283094)
# condition notes: primary human HUVEC with PBMC; actives raise or lower the signal
Active and inactive are the calls of the source. Rule for the calls: active = hit-call score of the fitted dose curve at least 0.9, where 1 is the maximum; inactive = score below 0.9.
The reply should be one of these categories: active, inactive

Known results for molecules:
Prompt: Could you check what this test reported for `Cc1nn(-c2cc(NS(C)(=O)=O)c(Cl)cc2Cl)c(=O)n1C(F)F` ?
Completion: inactive

Prompt: Here is the next molecule: `CCOP(=O)(OCC)Oc1cc(C)nc(C(C)C)n1`
Completion: inactive

Prompt: Here is the next molecule: `CCOP(=S)(OCC)Oc1ccc2c(C)c(Cl)c(=O)oc2c1`
Completion: inactive

Prompt: Here is the next molecule: CC(COc1ccc(Oc2ccccc2)cc1)Oc1ccccn1 (configuration not stated)
Completion: inactive

Prompt: Here is the next molecule: `CCOC(=O)COc1cc(-c2nn(C)c(OC(F)F)c2Cl)c(F)cc1Cl`
Completion: inactive

Prompt: Here is the next molecule: C#CCC1=C(C)C(OC(=O)C2C(C=C(C)C)C2(C)C)CC1=O (configuration not stated)
Completion: active

New cases:
Prompt: Could you check what this test reported for `CCCOc1nn(C(=O)NS(=O)(=O)c2ccccc2C(=O)OC)c(=O)n1C` ?
Completion: inactive

* * *

# assay comment: Tanguay_ZF_120hpf_PFIN_legacy: (Legacy) Oregon State University Tanguay Lab 120 Hour Post-fertilization zebrafish Assay for Pectoral Fin Malformation (AID 2283648);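 further: each larva judged yes or no for fin defect by brightfield with dead larvae skipped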
# Protocol: Tanguay_ZF_120hpf_legacy is a whole embryo, multiplexed endpoint assay using zebrafish larvae exposed for 120 hours post fertilization on a 96-well plate.Tanguay_ZF_120hpf_PFIN_legacy is one of one assay component(s) measured or calculated from the Tanguay_ZF_120hpf_legacy assay. […] This assay endpoint, Tanguay_ZF_120hpf_PFIN_legacy, was analyzed in the positive analysis fitting direction relative to DMSO as the negative control and baseline of activity. […]
Records with an inconclusive call do not appear. Calls of active or inactive are those of the source. How the source made its calls: active means hit-call score of the fitted dose curve at least 0.9, where 1 is the maximum; inconclusive means response in the unintended direction; inactive means score below 0.9.
The reply should be one of these categories: yes = active, no = inactive

Prompt: Could you check what this test reported for `CCc1cccc(CC)c1N(COC)C(=O)CCl` ?
Completion: no

Prompt: Here is the next compound: CCOP(=O)(NC(C)C)Oc1ccc(SC)c(C)c1 (stereo not given)
Completion: yes

Prompt: Here is the next compound: `Nc1nc(N)nc(NC2CC2)n1`
Completion: no

Prompt: Here is the next compound: `CCC(CC)Nc1c([N+](=O)[O-])cc(C)c(C)c1[N+](=O)[O-]`
Completion: no

Prompt: Here is the next compound: CCCSP(=O)(OCC)Oc1ccc(Br)cc1Cl (stereo not given)
Completion: no

Prompt: Here is the next compound: `CCOP(=O)(OCC)Oc1cc(C)nc(C(C)C)n1`
Completion: no

New cases:
Prompt: Could you check what this test reported for `Cc1nn(-c2cc(NS(C)(=O)=O)c(Cl)cc2Cl)c(=O)n1C(F)F` ?
Completion: no

Prompt: Here is the next compound: `CCCSP(=O)(OCC)SCCC`
Completion: no

Prompt: Here is the next compound: `CC(C)[C@H](C(=O)O[C@H](C#N)c1cccc(Oc2ccccc2)c1)c1ccc(Cl)cc1`
Completion: yes

Prompt: Here is the next compound: `CCNc1nc(Cl)nc(NC(C)(C)C#N)n1`
Completion: no

Prompt: Here is the next compound: `CCOC(=O)COc1cc(-c2nn(C)c(OC(F)F)c2Cl)c(F)cc1Cl`
Completion: no

Prompt: Here is the next compound: COP(=O)(NC(C)=O)SC (stereo not given)
Completion: no

Prompt: Here is the next compound: `CSc1nc(NC(C)C)nc(NC(C)C)n1`
Completion: no

Prompt: Here is the next compound: CCC(=NOC/C=C/Cl)C1=C(O)CC(C2CCOCC2)CC1=O (stereo not given)
Completion: no

* * *

# target or system: human Acetylcholinesterase (AChE), ACHE (gene 43)
# assay comment: NVS_ENZ_hAChE: NovaScreen (NVS) Enzymatic Assay for human Acetylcholinesterase (AChE) (AID 2283129)
Records with an inconclusive call do not appear. Calls of active or inactive are those of the source. Rule for the calls: active = hit-call score of the fitted dose curve at least 0.9, where 1 is the maximum; inconclusive = response in the unintended direction; inactive = score below 0.9.
The reply should be one of these categories: active, inactive

Known results for compounds:
Prompt: Could you check what this test reported for `CNC(=O)ON=C(SC)C(=O)N(C)C` ?
Completion: active

Prompt: Here is the next compound: `CC(=NC#N)N(C)Cc1ccc(Cl)nc1`
Completion: active

Prompt: Here is the next compound: CCOP(=S)(OCC)OC(Cl)C(Cl)(Cl)Cl (configuration not stated)
Completion: active

Prompt: Here is the next compound: `COP(=O)(OC)SCn1c(=O)oc2cc(Cl)cnc21`
Completion: active

Prompt: Here is the next compound: `CCC(=O)Nc1ccc(Cl)c(Cl)c1`
Completion: inactive

New cases:
Prompt: Could you check what this test reported for `CNC(=O)Oc1cccc2c1OC(C)(C)O2` ?
Completion: active

Prompt: Here is the next compound: CCOC(=O)CC(SP(=O)(OC)OC)C(=O)OCC (configuration not stated)
Completion: inactive
